Quick list: koff per entry.
# target of assay: T1, hPD-L1mIg fusion protein (human, UniProt Q9NZQ7 19-238)
# T1 construct: also called hPD-L1 mIg protein; biotin-labeled hPD-L1-mouse Fc fusion protein; not shown: mouse Ig (Fc) part
# T1 sequence (Q9NZQ7 19-238): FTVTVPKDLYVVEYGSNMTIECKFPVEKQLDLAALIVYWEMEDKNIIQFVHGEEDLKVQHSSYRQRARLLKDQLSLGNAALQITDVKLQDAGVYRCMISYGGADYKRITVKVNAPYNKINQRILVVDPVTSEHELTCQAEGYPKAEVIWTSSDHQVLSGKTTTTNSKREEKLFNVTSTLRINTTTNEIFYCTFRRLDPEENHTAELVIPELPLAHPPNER
# test summary: SPR, Biacore T200; hPD-L1 mIg amine-coupled on CM5 chip, antibody injected at 1-32 nM, full kinetic analysis
Report the value in s⁻¹ with no unit label.

Recorded koff, per entry:
anti-PD-L1 HC2 + LC2 (antibody, V domains shown, Humanized antibody, Humanized VH 2 + Humanized VL 2; also called H2+L2; H22) VH: QVQLVQSGAEVKKPGASVKVSCKASGFNIKDTYMYWVRQAPGQGLEWIGRIDPANDNTKYAPKFQGRVTITADTSTNTAYMELSSLRSEDTAVYYCARAKNLLNYFDYWGQGTLVTVSS VL: DIQMTQSPSSLSASVGDRVTITCRASQEISGYLSWLQQKPGKAPKRLIYATSTLQSGVPSRFSGSRSGTDYTLTISSLQPEDFATYYCLQYAIYPLTFGQGTKLEIKR: 0.00251
anti-PD-L1 HC1 + LC2 (antibody, V domains shown, Humanized antibody, Humanized VH 1 + Humanized VL 2; also called H1+L2; H12) VH: QVQLVQSGAEVKKPGASVKVSCKASGFNIKDTYMYWVRQAPGQGLEWMGRIDPANDNTKYAQKFQGRVTITADTSTSTAYMELSSLRSEDTAVYYCARAKNLLNYFDYWGQGTLVTVSS VL: DIQMTQSPSSLSASVGDRVTITCRASQEISGYLSWLQQKPGKAPKRLIYATSTLQSGVPSRFSGSRSGTDYTLTISSLQPEDFATYYCLQYAIYPLTFGQGTKLEIKR: 0.000811

Query block: Entry under review: anti-PD-L1 HC2 + LC1 (antibody, V domains shown, Humanized antibody, Humanized VH 2 + Humanized VL 1; also called H2+L1; H21) VH: QVQLVQSGAEVKKPGASVKVSCKASGFNIKDTYMYWVRQAPGQGLEWIGRIDPANDNTKYAPKFQGRVTITADTSTNTAYMELSSLRSEDTAVYYCARAKNLLNYFDYWGQGTLVTVSS VL: DIQMTQSPSSLSASVGDRVTITCRASQEISGYLSWYQQKPGKAPKRLIYATSTLDSGVPSRFSGSGSGTDFTLTISSLQPEDFATYYCLQYAIYPLTFGQGTKLEIKR . Reported koff?
Result block: 0.00406
